tested on: Venezuelan equine encephalitis virus (VEEV); settings: Vero 76 cells without virus; test compounds
experimental-endpoint: CC50

Please look up its CC50: Nc1ccn([C@@H]2OC(CO)=C[C@H]2O)c(=O)n1 [AB21650, 3′-deoxy-3′,4′-didehydro cytidine] > 2000 µM

For the molecule O=c1ccn([C@@H]2OC(CO)=C[C@H]2O)c(=O)[nH]1 , what CC50 is on record? 1100 µM

* * *

system: Epstein-Barr virus (EBV), Akata strain; design: unit not given beside the values
Kindly supply the reported SI50 values for the records listed here.
The answer should be a number; do not append a unit.

What reported SI50 corresponds to CC(C)(C)C(=O)SCCOP(=O)(OCCSC(=O)C(C)(C)C)OCC1=CC(O)C(n2cnc3c(=O)[nH]c(N)nc32)O1 (stereo not shown) [SATE-ddhG] on Epstein-Barr virus (EBV), Akata strain? 35

Recorded SI50 for CC(C)(C)C(=O)SCCOP(=O)(OCCSC(=O)C(C)(C)C)OCC1=CC(O)C(n2ccc(N)nc2=O)O1 (stereo not shown) [SATE-ddhC] with Epstein-Barr virus (EBV), Akata strain, please? 7

Form entry - test system: Epstein-Barr virus (EBV), Akata strain; read-out: SI50; compound: CC(C)(C)C(=O)SCCOP(=O)(OCCSC(=O)C(C)(C)C)OCC1=CC(O)C(n2cnc3c(N)ncnc32)O1 (stereo not shown) [SATE-ddhA] 4

* * *

tested on: Rift Valley fever virus (RVFV); conditions: Vero 76 cells without virus; test compounds
experimental-endpoint: CC50

Would you kindly share the measured CC50 for O=c1ccn([C@@H]2OC(CO)=C[C@H]2O)c(=O)[nH]1 ? 1100 µM

Any idea what its CC50 is? The molecule is Nc1ccn([C@@H]2OC(CO)=C[C@H]2O)c(=O)n1 [AB21650, 3′-deoxy-3′,4′-didehydro cytidine] > 2000 µM

* * *

Please go through the items and note down their CC50.

Query CC50 on MRC-5 cells for CCC(CC)COC(=O)[C@H](C)N[P@](=O)(OCC1=CC(O)C(n2cnc3c(=O)[nH]c(N)nc32)O1)Oc1ccccc1 (stereo partly drawn) > 100 µM

# get_value(readout= CC50, system= MRC-5 cells) for O=c1ccn([C@@H]2OC(CO)=C[C@H]2O)c(=O)[nH]1 > 100 µM

Under MRC-5 cells: CC50 value of CCC(CC)COC(=O)[C@H](C)N[P@](=O)(OCC1=CC(O)C(n2ccc(=O)[nH]c2=O)O1)Oc1ccccc1 (stereo partly drawn) ? > 100 µM

* * *

assay: in vivo; conditions: male, Sprague-Dawley, rat, iv, 10 mg/kg
Hi there, I'd appreciate the recorded concentration at 24 h for every entry that follows.
Quote the value and follow it with the unit of measurement.

Record request: concentration at 24 h value, item CCCCCCCCCCCCCCCCOCCCOP(=O)(O)OCC1=C[C@H](O)[C@H](n2cnc3c(=O)[nH]c(N)nc32)O1 [AB23040] 5 nM

Quick one: concentration at 24 h of CCCCCCCCCCCCCCCCOCCCOP(=O)(O)CO[C@H](CO)Cn1ccc(N)nc1=O [BCV, Brincidofovir] ? 6 nM

* * *

activity against EBV (in words) data for Epstein-Barr virus (EBV), Akata strain follow.
experimental-endpoint: activity against EBV (in words)

INSERT INTO measurements (compound, target_system, value_observed) VALUES
  ('CC(C)(C)C(=O)SCCOP(=O)(OCCSC(=O)C(C)(C)C)OCC1=CC(O)C(n2ccc(N)nc2=O)O1 (stereo not shown) [SATE-ddhC]', 'Epstein-Barr virus (EBV), Akata strain', 'moderately active'),
  ('CC(C)(C)C(=O)SCCOP(=O)(OCCSC(=O)C(C)(C)C)OCC1=CC(O)C(n2cnc3c(N)ncnc32)O1 (stereo not shown) [SATE-ddhA]', 'Epstein-Barr virus (EBV), Akata strain', 'moderately active'),
  ('CC(C)(C)C(=O)SCCOP(=O)(OCCSC(=O)C(C)(C)C)OCC1=CC(O)C(n2cnc3c(=O)[nH]cnc32)O1 (stereo not shown) [SATE-ddhI]', 'Epstein-Barr virus (EBV), Akata strain', 'moderately active');
